target: CDK9/CycT1 (Homo sapiens (Human)); experiment: CDK9/CycT1 kinase assay (Method 1a); format: biochemical; details: 10 μM ATP
Sequence (P50750 whole entry): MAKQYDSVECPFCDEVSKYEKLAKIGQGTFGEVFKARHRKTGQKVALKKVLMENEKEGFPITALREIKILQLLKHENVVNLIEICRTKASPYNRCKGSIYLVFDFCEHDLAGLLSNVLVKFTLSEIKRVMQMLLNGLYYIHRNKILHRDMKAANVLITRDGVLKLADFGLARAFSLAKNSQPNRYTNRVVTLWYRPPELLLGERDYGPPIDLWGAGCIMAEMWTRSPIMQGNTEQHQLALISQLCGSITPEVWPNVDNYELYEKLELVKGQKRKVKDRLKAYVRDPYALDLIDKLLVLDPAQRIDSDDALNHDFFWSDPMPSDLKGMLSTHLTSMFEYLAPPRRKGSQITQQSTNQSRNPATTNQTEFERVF
Sequence (O60563 whole entry partner): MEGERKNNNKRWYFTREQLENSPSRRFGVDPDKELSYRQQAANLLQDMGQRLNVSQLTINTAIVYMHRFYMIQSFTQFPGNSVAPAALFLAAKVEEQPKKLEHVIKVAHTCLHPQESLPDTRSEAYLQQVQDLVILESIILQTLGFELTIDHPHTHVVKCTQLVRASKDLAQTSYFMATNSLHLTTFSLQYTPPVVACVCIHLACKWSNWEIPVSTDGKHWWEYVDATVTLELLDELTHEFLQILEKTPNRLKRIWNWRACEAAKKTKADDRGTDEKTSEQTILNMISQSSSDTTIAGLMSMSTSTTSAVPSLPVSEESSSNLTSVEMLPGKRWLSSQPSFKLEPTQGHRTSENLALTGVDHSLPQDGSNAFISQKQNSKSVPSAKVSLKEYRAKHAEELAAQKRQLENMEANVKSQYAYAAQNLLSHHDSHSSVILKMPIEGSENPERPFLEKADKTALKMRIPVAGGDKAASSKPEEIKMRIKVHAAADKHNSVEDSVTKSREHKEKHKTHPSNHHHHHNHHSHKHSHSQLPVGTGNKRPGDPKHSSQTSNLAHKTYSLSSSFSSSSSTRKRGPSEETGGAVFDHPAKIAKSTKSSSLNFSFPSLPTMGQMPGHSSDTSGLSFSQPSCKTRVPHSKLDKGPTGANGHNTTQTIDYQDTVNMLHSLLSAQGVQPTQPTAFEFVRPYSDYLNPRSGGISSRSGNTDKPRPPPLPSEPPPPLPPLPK
pIC50: −log10 of the molar value. Counter-ions that a name gives are not always drawn.
resultType: pIC50

The examples below pair each entry with its known result.
compound	pIC50
N=S(=O)(CCN)Cc1cc(Nc2ncc(F)c(-c3ccc(F)cc3F)n2)cc(C(F)(F)F)c1 (racemic) [Example 25, trifluoroacetate]	7.07
Cc1cc(CS(C)(=N)=O)cc(Nc2ncc(F)c(-c3ccc(F)cc3F)n2)c1 (single isomer, unassigned) [Example 38]	7.72

a. CS(=N)(=O)Cc1cc(Br)cc(Nc2ncc(F)c(-c3ccc(F)cc3F)n2)c1 (racemic) [Example 19]
b. CS(=O)(Cc1cc(Nc2ncc(F)c(-c3ccc(F)cc3F)n2)cc(S(F)(F)(F)(F)F)c1)=NC(N)=O (single isomer, unassigned) [Example 34]
c. CS(=N)(=O)Cc1cccc(Nc2ncc(F)c(-c3ccc(F)cc3F)n2)c1 (racemic)
d. Cc1cc(CS(C)(=N)=O)cc(Nc2ncc(F)c(-c3ccc(F)cc3F)n2)c1 (racemic) [Example 17]
e. COCCS(=O)(Cc1cc(Nc2ncc(F)c(-c3ccc(F)cc3F)n2)cc(C(F)(F)F)c1)=NC#N (racemic)
Prompt: Arrange items by their pIC50 values in increasing order. Write the labels out in the order the request specifies.
Response: c, d, a, e, b

A. CS(=N)(=O)Cc1cc(Br)cc(Nc2ncc(F)c(-c3ccc(F)cc3F)n2)c1 (single isomer, unassigned) [Example 42]
B. CS(=O)(Cc1cc(Nc2ncc(F)c(-c3ccc(F)cc3F)n2)cc(C(F)(F)F)c1)=NC(N)=O (single isomer, unassigned) [Example 23]
Prompt: Which entry shows the lesser value of pIC50 here, A or B ? Which one? Tell me its label.
Response: A
(A: 7.82, B: 8.40)
